Source listed as PubChem BioAssay (Tox21).

- test_protocol: A CellTox Green Cytotoxicity Assay to monitor cytotoxicity in HEK293 cells - 16 hour (AID 1224888); further: nearly all actives have a fitted effect of over 35% in size
- details: CellTox Green fluorescence; series mostly up to 76.8 µM
- Excerpt: National Center for Advancing Translational Sciences [NCATS] NIH Chemical Genomics Center [NCGC] U.S. Environmental Protection Agency [EPA] National Institutes of Environmental Health Sciences [NIEHS] National Toxicology Program [NTP] Cell-based models are critical for drug discovery. […] Viable cells produce no appreciable increases in fluorescence. Therefore, the fluorescence signal produced by the binding interaction with dead cell DNA is proportional to cytotoxicity. […]
Records with an inconclusive call do not appear. Activity calls are given as the source filed them. The call rests on the fitted dose curve; in most records, active means well fitted activation curve with a large enough effect in the repeat runs; inconclusive means weak or mixed curves; inactive means flat fitted curve, though single readings scatter.
Give your call using only these classes: active, inactive

Write down the call the test reported for this molecule. Item: CCCCCCCCCC[N+](C)(C)CCCCCCCCCC
active

What is the recorded call for this molecule in the test? CC(C)(O)c1cnn2c(-c3ccc(F)c(-c4c(F)cccc4C#N)c3)cnc2n1
inactive

For N#C/C=C/C#N , what call appears in the results of this test?
inactive
